test.details: Cytotoxicity against human HL60 cells after 72 hrs by MTT assay
Format: functional, cell-based
particulars: HL-60, 72 h
Criterion: IC50 strictly under 2 µM. Met: Satisfied. Not met: Not satisfied.

I wonder whether Cc1ccc(/C=N/Nc2nc3ccccc3s2)c(C)c1 has IC50 below 2 µM. Can you tell? Not satisfied

I wonder whether Clc1ccc(/C=N/Nc2nc3ccccc3s2)cc1 has IC50 below 2 µM. Can you tell? Not satisfied

I wonder whether COc1cc(/C=N/Nc2nc3ccccc3s2)ccc1O has IC50 below 2 µM. Can you tell? Not satisfied

I wonder whether C(=N\Nc1nc2ccccc2s1)/c1ccc2c(c1)OCO2 has IC50 below 2 µM. Can you tell? Not satisfied

I wonder whether O=[N+]([O-])c1ccc(O)c(/C=N/Nc2nc3ccccc3s2)c1 has IC50 below 2 µM. Can you tell? Satisfied

I wonder whether Oc1ccc(/C=N/Nc2nc3ccccc3s2)cc1 has IC50 below 2 µM. Can you tell? Not satisfied

I wonder whether CN(C)c1ccc(/C=N/Nc2nc3ccccc3s2)cc1 has IC50 below 2 µM. Can you tell? Not satisfied

I wonder whether Clc1ccc(/C=N/Nc2nc3ccccc3s2)c(Cl)c1 has IC50 below 2 µM. Can you tell? Not satisfied

I wonder whether Brc1ccc(/C=N/Nc2nc3ccccc3s2)cc1 has IC50 below 2 µM. Can you tell? Not satisfied

I wonder whether Oc1ccc(/C=N/Nc2nc3ccccc3s2)c(O)c1 has IC50 below 2 µM. Can you tell? Satisfied

I wonder whether O=C(O)c1ccccc1/C=N/Nc1nc2ccccc2s1 has IC50 below 2 µM. Can you tell? Not satisfied

I wonder whether Oc1cccc(/C=N/Nc2nc3ccccc3s2)c1O has IC50 below 2 µM. Can you tell? Satisfied

I wonder whether C(=N\Nc1nc2ccccc2s1)/c1ccc(-c2ccccn2)cc1 has IC50 below 2 µM. Can you tell? Not satisfied

I wonder whether COc1ccc(/C=N/Nc2nc3ccccc3s2)c(OC)c1 has IC50 below 2 µM. Can you tell? Not satisfied

I wonder whether Fc1ccc(/C=N/Nc2nc3ccccc3s2)c(F)c1 has IC50 below 2 µM. Can you tell? Not satisfied

I wonder whether Oc1ccc(/C=N/Nc2nc3ccccc3s2)cc1O has IC50 below 2 µM. Can you tell? Not satisfied

I wonder whether Oc1ccc(O)c(/C=N/Nc2nc3ccccc3s2)c1 has IC50 below 2 µM. Can you tell? Satisfied

From: ChEMBL document CHEMBL3351671
